Target: FGFR1 (UniProt P11362)
Sequence (P11362 whole entry, looked up): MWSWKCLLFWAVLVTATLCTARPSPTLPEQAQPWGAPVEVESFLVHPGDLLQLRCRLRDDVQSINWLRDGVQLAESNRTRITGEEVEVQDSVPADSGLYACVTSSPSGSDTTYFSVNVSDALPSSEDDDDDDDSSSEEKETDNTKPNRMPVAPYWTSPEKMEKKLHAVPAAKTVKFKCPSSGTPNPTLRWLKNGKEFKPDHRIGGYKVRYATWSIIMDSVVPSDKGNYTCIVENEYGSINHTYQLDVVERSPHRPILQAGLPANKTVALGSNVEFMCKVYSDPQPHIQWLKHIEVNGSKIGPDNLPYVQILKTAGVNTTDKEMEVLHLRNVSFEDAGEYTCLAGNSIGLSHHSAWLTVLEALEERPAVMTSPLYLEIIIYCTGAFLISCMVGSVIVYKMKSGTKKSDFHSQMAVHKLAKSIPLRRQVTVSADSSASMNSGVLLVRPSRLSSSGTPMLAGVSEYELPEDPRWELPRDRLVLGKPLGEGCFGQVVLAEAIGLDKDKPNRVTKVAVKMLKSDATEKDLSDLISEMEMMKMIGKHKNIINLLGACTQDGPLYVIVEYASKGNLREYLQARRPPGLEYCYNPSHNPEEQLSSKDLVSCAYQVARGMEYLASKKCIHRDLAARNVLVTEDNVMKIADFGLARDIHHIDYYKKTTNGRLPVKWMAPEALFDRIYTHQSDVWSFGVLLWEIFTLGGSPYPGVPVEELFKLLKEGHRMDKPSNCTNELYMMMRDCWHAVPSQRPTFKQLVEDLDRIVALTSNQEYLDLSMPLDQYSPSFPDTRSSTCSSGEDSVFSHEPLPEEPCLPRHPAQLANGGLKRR
Experiment: phosphorylation enrichment, bacterial display (enrichment ratio); higher = better substrate or ligand; peptides without Tyr show the background;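 note: 11-residue human phosphosite peptides and single-mutation variants displayed on the E. coli surface, counted by deep sequencing, each peptide's frequency after selection divided by its frequency in the unselected input library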;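 note: frequency after pTyr selection over input frequency; kinase dosed for 20-30% of maximal phosphorylation in three min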
Mark F for phosphorylation enrichment values under 0.6, and T for everything at or above.

- SEQUENCE INPUT: "EVKRLYGSVCD [TC2N_Y154]"
  GROUP LABEL: "F"
- SEQUENCE INPUT: "GLRYGYGGLGG [KRTAP20-2_Y15_V17G]"
  GROUP LABEL: "F"
- SEQUENCE INPUT: "EPSVPYRGTVF [GLI3_Y104]"
  GROUP LABEL: "F"
- SEQUENCE INPUT: "RILDVYIFLGP [GAA_Y340_G335R]"
  GROUP LABEL: "T"
- SEQUENCE INPUT: "PSFSEYASVQV [SIRPA_Y496]"
  GROUP LABEL: "T"
- SEQUENCE INPUT: "ILDEAYVMASV [EGFR_Y764]"
  GROUP LABEL: "T"
- SEQUENCE INPUT: "HFECKYVINAI [MAOA_Y268_YF]"
  GROUP LABEL: "T"
- SEQUENCE INPUT: "VATSWYRSPEL [CDKL5_Y177_R175S]"
  GROUP LABEL: "F"
- SEQUENCE INPUT: "LDYNEYVRDLN [HPRT1_Y198_F199V]"
  GROUP LABEL: "T"
- SEQUENCE INPUT: "RGKLFYQEVPA [METTL11B_Y76_A72G]"
  GROUP LABEL: "T"
- SEQUENCE INPUT: "GIFEDYVEGLR [MYL6_Y89_T85I_YF]"
  GROUP LABEL: "F"
- SEQUENCE INPUT: "GCKNHYDKDKP [THAP1_Y14_R13H]"
  GROUP LABEL: "F"
- SEQUENCE INPUT: "QFKDKYLAKHN [CASK_Y712_YF]"
  GROUP LABEL: "F"
- SEQUENCE INPUT: "SISYDYCRVPM [BST2_Y8_T4I]"
  GROUP LABEL: "T"
- SEQUENCE INPUT: "KSEFAYEIFDK [MYOM2_Y1024_L1022F]"
  GROUP LABEL: "F"
- SEQUENCE INPUT: "LISVSYDDWDY [GRIN2A_Y281]"
  GROUP LABEL: "T"
- SEQUENCE INPUT: "PNEAVYTKMMT [G6PD_Y401]"
  GROUP LABEL: "F"
- SEQUENCE INPUT: "MTFVFYRENLR [NLRP14_Y443_YF]"
  GROUP LABEL: "F"
- SEQUENCE INPUT: "MEYLPYGSLRD [JAK2_Y934]"
  GROUP LABEL: "T"
- SEQUENCE INPUT: "EGLKVYINGTL [ADGRD1_Y183_V184I]"
  GROUP LABEL: "F"
- SEQUENCE INPUT: "EFGRRYGFSCQ [CCDC93_Y209_R213C_YF]"
  GROUP LABEL: "T"
- SEQUENCE INPUT: "GTCGGYCSVLG [RAB18_Y202_A198T]"
  GROUP LABEL: "F"
- SEQUENCE INPUT: "RFVTRYIFNRE [HLA-DQB1_Y62_YF]"
  GROUP LABEL: "T"
- SEQUENCE INPUT: "PSNTEYPGPHS [TP63_Y171_D170E]"
  GROUP LABEL: "F"
- SEQUENCE INPUT: "SDVNKYSTAFG [GJB3_Y16_G12D]"
  GROUP LABEL: "F"
- SEQUENCE INPUT: "RELGEYPLAEY [ALDH1A3_Y492_A493P]"
  GROUP LABEL: "T"
- SEQUENCE INPUT: "PESIMYWKFTT [NTRK3_Y744_R745W]"
  GROUP LABEL: "T"
- SEQUENCE INPUT: "PSGPMYRGAVP [ASAH1_Y43_T42M]"
  GROUP LABEL: "F"
- SEQUENCE INPUT: "VDTFWYKFLKR [EPM2A_Y86]"
  GROUP LABEL: "F"
- SEQUENCE INPUT: "TVVGLYQKSSL [MYH7_Y609]"
  GROUP LABEL: "F"
- SEQUENCE INPUT: "YGPPQYNMQYS [ERBB2IP_Y977_I979M]"
  GROUP LABEL: "F"
- SEQUENCE INPUT: "FFRDGCMPRQF [GSS_Y270_Y270C_YF]"
  GROUP LABEL: "F"
- SEQUENCE INPUT: "CTTSHYNYMCN [TP53_Y234_I232S]"
  GROUP LABEL: "F"
- SEQUENCE INPUT: "HYGNNYRDVLQ [MACC1_Y803]"
  GROUP LABEL: "F"
- SEQUENCE INPUT: "TNEYEYDELIV [TGM1_Y136_D132N]"
  GROUP LABEL: "T"
- SEQUENCE INPUT: "ISHVAYRVLGK [TRRAP_Y892]"
  GROUP LABEL: "F"
- SEQUENCE INPUT: "SLIDGYFRLTE [JAK2_Y372_A377E_YF]"
  GROUP LABEL: "F"
- SEQUENCE INPUT: "HSDYQYSQRSQ [PKP2_Y168]"
  GROUP LABEL: "F"
- SEQUENCE INPUT: "PVDGEYFTLQI [TP53_Y327_L323V]"
  GROUP LABEL: "T"
- SEQUENCE INPUT: "LNNIIYRVERA [CUX2_Y1470]"
  GROUP LABEL: "T"
- SEQUENCE INPUT: "FGTAQYCCRMG [LRRK2_Y2023_I2020T_YF]"
  GROUP LABEL: "F"
- SEQUENCE INPUT: "LFSINYLHFGD [KDM4C_Y201_E206D_YF]"
  GROUP LABEL: "T"
- SEQUENCE INPUT: "APNEFYDGDHD [HDAC3_Y414]"
  GROUP LABEL: "T"
- SEQUENCE INPUT: "STGSRYQPLAS [NCAPD2_Y1325]"
  GROUP LABEL: "F"
- SEQUENCE INPUT: "SMVVPYEPPEV [TP53_Y220_V216M]"
  GROUP LABEL: "F"
- SEQUENCE INPUT: "FGLPRYRWLTH [TSPAN12_Y143_YF]"
  GROUP LABEL: "F"
- SEQUENCE INPUT: "EEKKKYYDTKI [CASP5_Y103]"
  GROUP LABEL: "F"
- SEQUENCE INPUT: "SQSKGYRPKLF [SIPA1L3_Y1376_G1371S_YF]"
  GROUP LABEL: "F"
- SEQUENCE INPUT: "SLEKGYELPDG [ACTC1_Y242_S241G]"
  GROUP LABEL: "F"
- SEQUENCE INPUT: "RLSVDCGKKSK [TUBA4A_Y161_Y161C]"
  GROUP LABEL: "F"
- SEQUENCE INPUT: "EEQKKYFNAVK [SCN5A_Y1494_M1498V_YF]"
  GROUP LABEL: "F"
- SEQUENCE INPUT: "WHYTFYNELRV [ACTC1_Y93_H90Y]"
  GROUP LABEL: "T"
